Please provide measured inhibition for the entries that follow.
molecular target: Virion infectivity factor (Human immunodeficiency virus type 1 group M subtype B (isolate BH10)) + Virion infectivity factor (Human immunodeficiency virus type 1 group M subtype B (isolate BRU/LAI)) + Virion infectivity factor (Human immunodeficiency virus type 1 group M subtype B (isolate PCV12)) + Virion infectivity factor (Human immunodeficiency virus type 1 group M subtype B (isolate HXB2)) + DNA dC->dU-editing enzyme APOBEC-3G (Homo sapiens) (UniProt P69720+P69721+P69722+P69723+Q9HC16); experiment: inhibitors of Vif binding to APOBEC3G peptide, primary screen, biochemical, TR-FRET, GST-Vif 1-94, biotin-A3G peptide, dose response retest (AID 1117319); settings: active compounds read high;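 note: Vif residues 1-94 fused to GST binding biotinylated APOBEC3G peptide 110-148; 0% = full assay without inhibitor and 100% = GST in place of GST-Vif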
Among all 260,000 compounds or so, about 1,500 (0.58%) were called active. Inconclusive results (about 5%) are left out. A selection follows. Measured potencies and affinities stand elsewhere.
Numbers only, in %.

C[C@@H]1CCCCO[C@H](CN(C)Cc2ccc(C(F)(F)F)cc2)[C@@H](C)CN([C@H](C)CO)C(=O)c2cc(NS(=O)(=O)c3cn(C)cn3)ccc2O1    -0.57
Cc1noc(C)c1S(=O)(=O)Nc1ccc2c(c1)C(=O)N([C@@H](C)CO)C[C@@H](C)[C@@H](CN(C)CC1CCCCC1)OCCCC[C@@H](C)O2    2.32
O=C(CSCc1c(Cl)cccc1Cl)NN=C1CCCC1    15.1
Clc1ncc2[nH]cnc2n1    1.24
CCC(C)[C@H](NC(=O)C1CCN(C(=O)[C@H](Cc2ccccc2)NC(=O)OC(C)(C)C)CC1)C(=O)O (stereo not given in full)    7.73

Give inhibition for all compounds that follow.
1. CCOC(=O)N1CCC(N2CC34C=CC(O3)C(C(=O)Nc3ccc(F)cc3)C4C2=O)CC1 (stereo not given)
2. C=CCSc1nnc(CNC(=O)c2ccccc2C)n1C(C)C
3. CCOc1ccccc1OCC(=O)O
4. Cc1ccc2oc3nc(C)c(C(=O)O)cc3c(=O)c2c1
5. COC(=O)c1c(C(=O)OC)c(C)n(Cc2ccco2)c1C

1: 5.89; 2: 4.54; 3: 2.95; 4: 3.05; 5: 1.05
